PROTOCOL_NOTES: Tested for dissociation constant of the compound; Value ranges from 0.1-0.3
Assay type: ADME
MEASURED_PROPERTY: Kd (nM)
Express the result in nM but write the number alone.

The value of Kd measured for the compound C[C@](Cc1c[nH]c2ccccc12)(NC(=O)OC1C2CC3CC(C2)CC1C3)C(=O)N[C@@H](CC(=O)O)Cc1ccc(N)cc1 (stereo partly specified) turned out to be 0.1

Ref: ChEMBL document CHEMBL1126475
